# Measurement Target: CDK4/Cyclin D3 (Homo sapiens) (UniProt P11802+P30281)
# Assay Setup: dose 100.0 nM, time 10.0 min
Measurement Name: inhibition (%)

INSERT INTO measurements (chemical_structure, result_value) VALUES
  ('O=C(CCCCO/N=C1/C(=C2/C(=O)Nc3ccccc32)Nc2ccccc21)NO', 21.1),
  ('O=C1Nc2ccccc2/C1=C1/Nc2ccccc2C1=O', 1),
  ('O=C(CCCCCO/N=C1/C(=C2/C(=O)Nc3ccccc32)Nc2ccccc21)NO', 10.2),
  ('O=C(CCCO/N=C1/C(=C2/C(=O)Nc3ccccc32)Nc2ccccc21)NO', 30.2),
  ('Cc1ccc2c(c1)C(=N\OCCCCCCC(=O)NO)/C(=C1/C(=O)Nc3ccccc31)N2', -1.7),
  ('C#CCN1C(=O)/C(=C2\Nc3ccccc3\C2=N/OCCCC(=O)NO)c2ccccc21', 3.9);

----------
# Measurement Target: Histone deacetylase 8 (Homo sapiens, UniProt Q9BY41)
# Sequence (Q9BY41 whole entry): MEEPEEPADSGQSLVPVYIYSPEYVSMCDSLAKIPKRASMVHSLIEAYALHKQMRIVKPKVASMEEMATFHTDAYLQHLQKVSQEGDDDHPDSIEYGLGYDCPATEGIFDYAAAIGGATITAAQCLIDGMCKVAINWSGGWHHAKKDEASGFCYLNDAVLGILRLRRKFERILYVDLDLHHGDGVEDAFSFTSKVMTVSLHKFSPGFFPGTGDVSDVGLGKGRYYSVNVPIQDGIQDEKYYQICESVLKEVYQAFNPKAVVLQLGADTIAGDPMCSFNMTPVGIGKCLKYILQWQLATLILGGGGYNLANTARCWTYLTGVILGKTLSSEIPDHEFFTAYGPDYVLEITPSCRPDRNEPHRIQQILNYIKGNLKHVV
# Assay Notes: Inhibition of HDAC8 (unknown origin) measured after 30 mins by fluorescence microplate reader assay
pIC50: −log10 of the molar value.
// pIC50 lookup, one value per entry
Measurement Name: pIC50

INSERT INTO assay_data (chemical_structure, measurement_name, result_value) VALUES
  ('O=C(CCCO/N=C1/C(=C2/C(=O)Nc3ccccc32)Nc2ccccc21)NO', 'pIC50', '< 5.30'),
  ('C#CCN1C(=O)/C(=C2\Nc3ccccc3\C2=N/OCCCC(=O)NO)c2ccccc21', 'pIC50', '< 5.30');

----------
The entries below come with measured IC50 values attached.
# Measurement Target: Histone deacetylase 2 (Homo sapiens, UniProt Q92769)
# Sequence (Q92769 whole entry): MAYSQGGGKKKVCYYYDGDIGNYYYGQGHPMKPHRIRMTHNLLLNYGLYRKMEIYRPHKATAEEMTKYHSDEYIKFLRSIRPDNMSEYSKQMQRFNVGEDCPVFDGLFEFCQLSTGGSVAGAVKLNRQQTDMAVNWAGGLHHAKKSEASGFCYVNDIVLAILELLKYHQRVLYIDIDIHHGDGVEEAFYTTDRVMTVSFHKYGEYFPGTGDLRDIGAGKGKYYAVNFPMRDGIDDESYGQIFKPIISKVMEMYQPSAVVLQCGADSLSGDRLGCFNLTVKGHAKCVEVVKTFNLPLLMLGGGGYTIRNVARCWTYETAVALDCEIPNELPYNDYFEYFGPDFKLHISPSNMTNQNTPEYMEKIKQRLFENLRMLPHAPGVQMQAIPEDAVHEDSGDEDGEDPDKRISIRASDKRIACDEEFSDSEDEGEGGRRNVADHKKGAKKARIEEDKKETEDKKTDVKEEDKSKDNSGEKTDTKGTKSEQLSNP
Measurement Name: IC50

INSERT INTO results (chemical_structure, result_value) VALUES
  ('O=C(CCCO/N=C1/C(=C2/C(=O)Nc3ccccc32)Nc2ccccc21)NO', '> 5 µM'),
  ('O=C(O)CCCO/N=C1/C(=C2/C(=O)Nc3ccccc32)Nc2ccccc21', '> 5 µM');

----------
# Assay Notes: Bioavailability in Sprague-Dawley rat at 50 mg/kg, ip measured up to 24 hrs by LC-MS analysis
# Assay type: ADME, organism-based
# Assay Setup: in vivo
Measurement Name: bioavailability (%)

INSERT INTO results (chemical_structure, result_value) VALUES
  ('O=C(CCCO/N=C1/C(=C2/C(=O)Nc3ccccc32)Nc2ccccc21)NO', 13);

----------
The compounds listed here are annotated with their inhibition.
# Measurement Target: Histone deacetylase (Homo sapiens) (UniProt Q13547+O15379+Q9UBN7+Q92769+Q9UQL6+Q8WUI4+Q9BY41+Q96DB2+P56524+Q9UKV0+Q969S8)
# Assay Setup: HeLa, Nucleus, dose 1000.0 nM, time 1.0 hrs
Measurement Name: inhibition (%)

INSERT INTO assay_data (chemical_structure, result_value) VALUES
  ('O=C1Nc2ccccc2/C1=C1/Nc2ccccc2/C1=N\O', 15),
  ('O=C(CCCCCCO/N=C1/C(=C2/C(=O)Nc3ccccc32)Nc2ccc(Br)cc21)NO', 79.5),
  ('O=C(O)CCCO/N=C1/C(=C2/C(=O)Nc3ccccc32)Nc2ccccc21', 0.1),
  ('O=C(CCCCCCO/N=C1/C(=C2/C(=O)Nc3ccccc32)Nc2ccccc21)NO', 98.1),
  ('Cc1ccc2c(c1)C(=N\OCCCCCCC(=O)NO)/C(=C1/C(=O)Nc3ccccc31)N2', 97.8);

----------
# Measurement Target: CDK4/Cyclin D3 (Homo sapiens) (UniProt P11802+P30281)
# Assay Setup: dose 100.0 nM, time 10.0 min
Measurement Name: inhibition

INSERT INTO assay_data (chemical_structure, result_value) VALUES
  ('O=C(CCCCCCO/N=C1/C(=C2/C(=O)Nc3ccc(F)cc32)Nc2ccccc21)NO', '17.2%'),
  ('Cc1ccc2c(c1)/C(=C1/Nc3ccccc3/C1=N\OCCCCCCC(=O)NO)C(=O)N2', '1.3%'),
  ('O=C(CCCCCCO/N=C1/C(=C2/C(=O)Nc3ccc(Br)cc32)Nc2ccccc21)NO', '-4.3%'),
  ('O=C(CO/N=C1/C(=C2/C(=O)Nc3ccccc32)Nc2ccccc21)NO', '26.2%'),
  ('O=C(CO/N=C1/C(=C2/C(=O)Nc3ccc(Br)cc32)Nc2ccccc21)NO', '54.5%'),
  ('O=C(CCCCCCO/N=C1/C(=C2/C(=O)Nc3ccccc32)Nc2ccccc21)NO', '6.1%'),
  ('O=C(CCCCCCC(=O)Nc1ccccc1)NO', '-5.8%'),
  ('COc1ccc2c(c1)NC(=O)/C2=C1\Nc2ccccc2\C1=N/OCCCCCCC(=O)NO', '-2.5%'),
  ('O=C(CCCCCO/N=C1/C(=C2/C(=O)Nc3ccc(Br)cc32)Nc2ccccc21)NO', '3.5%'),
  ('COc1ccc2c(c1)/C(=C1/Nc3ccccc3/C1=N\OCCCCCCC(=O)NO)C(=O)N2', '13%');

----------
# Measurement Target: Histone deacetylase 11 (Homo sapiens)
# Sequence (Q96DB2 whole entry): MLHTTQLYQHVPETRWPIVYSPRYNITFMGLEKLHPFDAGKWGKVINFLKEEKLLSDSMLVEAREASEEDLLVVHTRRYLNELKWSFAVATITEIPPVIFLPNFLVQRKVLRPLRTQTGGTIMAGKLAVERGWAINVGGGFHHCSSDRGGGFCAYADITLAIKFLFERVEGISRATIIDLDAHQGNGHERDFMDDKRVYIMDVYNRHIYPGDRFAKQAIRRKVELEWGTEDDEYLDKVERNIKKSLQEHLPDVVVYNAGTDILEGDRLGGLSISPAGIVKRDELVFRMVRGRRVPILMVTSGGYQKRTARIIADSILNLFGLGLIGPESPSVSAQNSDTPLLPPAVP
# Assay Notes: Inhibition of recombinant human HDAC11 measured after 30 mins by fluorescence microplate reader assay
Collected IC50 values appear next to each entry.
Measurement Name: IC50

INSERT INTO assay_data (chemical_structure, result_value) VALUES
  ('C#CCN1C(=O)/C(=C2\Nc3ccccc3\C2=N/OCCCC(=O)NO)c2ccccc21', '> 5 µM'),
  ('O=C(O)CCCO/N=C1/C(=C2/C(=O)Nc3ccccc32)Nc2ccccc21', '> 5 µM'),
  ('O=C(CCCO/N=C1/C(=C2/C(=O)Nc3ccccc32)Nc2ccccc21)NO', '> 5 µM');

----------
# Measurement Target: NAD-dependent protein deacylase sirtuin-5, mitochondrial (Homo sapiens)
# Sequence (Q9NXA8 whole entry): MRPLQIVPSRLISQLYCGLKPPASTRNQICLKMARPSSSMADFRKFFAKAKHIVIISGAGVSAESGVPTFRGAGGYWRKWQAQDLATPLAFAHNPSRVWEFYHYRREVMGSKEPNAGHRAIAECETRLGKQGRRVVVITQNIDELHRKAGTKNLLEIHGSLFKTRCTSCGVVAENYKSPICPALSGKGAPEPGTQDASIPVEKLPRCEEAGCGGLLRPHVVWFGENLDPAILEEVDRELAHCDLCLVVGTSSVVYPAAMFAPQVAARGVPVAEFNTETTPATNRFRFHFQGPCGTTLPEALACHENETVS
# Assay Notes: Inhibition of recombinant human SIRT5 measured after 30 mins by fluorescence microplate reader assay
pIC50: −log10 of the molar value.
Attribute: pIC50
Measurement Name: pIC50

INSERT INTO results (chemical_structure, result_value) VALUES
  ('O=C(O)CCCO/N=C1/C(=C2/C(=O)Nc3ccccc32)Nc2ccccc21', '< 4.00'),
  ('O=C(CCCO/N=C1/C(=C2/C(=O)Nc3ccccc32)Nc2ccccc21)NO', '< 4.00');

----------
# Measurement Target: Histone deacetylase (Homo sapiens) (UniProt Q13547+O15379+Q9UBN7+Q92769+Q9UQL6+Q8WUI4+Q9BY41+Q96DB2+P56524+Q9UKV0+Q969S8)
# Assay Setup: HeLa, Nucleus, dose 1000.0 nM, time 1.0 hrs
Measurement Name: inhibition (%)

INSERT INTO measurements (chemical_structure, measurement_units, result_value) VALUES
  ('Cc1ccc2c(c1)/C(=C1/Nc3ccccc3/C1=N\OCCCCCCC(=O)NO)C(=O)N2', '%', 89.9),
  ('O=C(CCCO/N=C1/C(=C2/C(=O)Nc3ccccc32)Nc2ccccc21)NO', '%', 51),
  ('COc1ccc2c(c1)/C(=C1/Nc3ccccc3/C1=N\OCCCCCCC(=O)NO)C(=O)N2', '%', 88.6),
  ('O=C(CCCCCCCO/N=C1/C(=C2/C(=O)Nc3ccccc32)Nc2ccccc21)NO', '%', 90.6);

----------
# Measurement Target: CDK2/Cyclin A2 (Homo sapiens) (UniProt P24941+P20248)
# Assay Setup: dose 100.0 nM, time 10.0 min
Measurement Name: inhibition

INSERT INTO results (chemical_structure, measurement_target, measurement_name, result_value) VALUES
  ('O=C(CCCCCO/N=C1/C(=C2/C(=O)Nc3ccccc32)Nc2ccccc21)NO', 'CDK2/Cyclin A2 (Homo sapiens) (UniProt P24941+P20248)', 'inhibition', '30%'),
  ('O=C(CCCCCCO/N=C1/C(=C2/C(=O)Nc3ccccc32)Nc2ccc([N+](=O)[O-])cc21)NO', 'CDK2/Cyclin A2 (Homo sapiens) (UniProt P24941+P20248)', 'inhibition', '6.2%'),
  ('O=C1Nc2ccccc2/C1=C1/Nc2ccccc2/C1=N\O', 'CDK2/Cyclin A2 (Homo sapiens) (UniProt P24941+P20248)', 'inhibition', '33.9%'),
  ('COc1ccc2c(c1)NC(=O)/C2=C1\Nc2ccccc2\C1=N/OCCCCCCC(=O)NO', 'CDK2/Cyclin A2 (Homo sapiens) (UniProt P24941+P20248)', 'inhibition', '4.5%'),
  ('O=C(CCCCCCO/N=C1/C(=C2/C(=O)Nc3c2cccc3C(F)(F)F)Nc2ccccc21)NO', 'CDK2/Cyclin A2 (Homo sapiens) (UniProt P24941+P20248)', 'inhibition', '3%'),
  ('O=C(CCCCCCO/N=C1/C(=C2/C(=O)Nc3ccc(I)cc32)Nc2ccccc21)NO', 'CDK2/Cyclin A2 (Homo sapiens) (UniProt P24941+P20248)', 'inhibition', '55.7%'),
  ('O=C(CCCO/N=C1/C(=C2/C(=O)Nc3ccccc32)Nc2ccccc21)NO', 'CDK2/Cyclin A2 (Homo sapiens) (UniProt P24941+P20248)', 'inhibition', '66.8%'),
  ('Cc1ccc2c(c1)NC(=C1\C(=O)Nc3ccccc31)/C2=N/OCCCCCCC(=O)NO', 'CDK2/Cyclin A2 (Homo sapiens) (UniProt P24941+P20248)', 'inhibition', '4%'),
  ('O=C(CCCCCCO/N=C1/C(=C2/C(=O)Nc3ccc([N+](=O)[O-])cc32)Nc2ccccc21)NO', 'CDK2/Cyclin A2 (Homo sapiens) (UniProt P24941+P20248)', 'inhibition', '33.4%'),
  ('O=C(O)CCCO/N=C1/C(=C2/C(=O)Nc3ccccc32)Nc2ccccc21', 'CDK2/Cyclin A2 (Homo sapiens) (UniProt P24941+P20248)', 'inhibition', '34.9%'),
  ('Cc1ccc2c(c1)C(=N\OCCCCCCC(=O)NO)/C(=C1/C(=O)Nc3ccccc31)N2', 'CDK2/Cyclin A2 (Homo sapiens) (UniProt P24941+P20248)', 'inhibition', '11.6%'),
  ('O=C(CCCCCCC(=O)Nc1ccccc1)NO', 'CDK2/Cyclin A2 (Homo sapiens) (UniProt P24941+P20248)', 'inhibition', '2.9%'),
  ('O=C(CO/N=C1/C(=C2/C(=O)Nc3ccccc32)Nc2ccccc21)NO', 'CDK2/Cyclin A2 (Homo sapiens) (UniProt P24941+P20248)', 'inhibition', '46.7%');
